# Test system: 633275-114-R-J1-PDC complex spheroids, viability;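 further: spheroids exposed to the agents for seven days; percent of DMSO vehicle control viability which is 100%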
# experimental-protocol: Anticancer human tumor 633275-114-R-J1-PDC patient-derived endometrial adenocarcinoma cell line growth inhibition [GQUAD]
# stated-conditions: second compound 3.16 µM; first compound 1 µM; active compounds read low
Record form. Attribute: viability, T/C. Fill in for each entry.
Please give a number only; it is taken to be in %.

Would you kindly share the measured viability, T/C for CC(C)n1c(=O)n(C)c2cnc3cc(F)c(-c4ccc(OCCCN5CCCCC5)nc4)cc3c21 + CN(C)c1ccc(Nc2c3ccc(NC(=O)CCN4CCCC4)cc3nc3cc(NC(=O)CCN4CCCC4)ccc23)cc1 ? 64.5

Okay, and C=CCn1c(=O)c2cnc(Nc3ccc(N4CCN(C)CC4)cc3)nc2n1-c1cccc(C(C)(C)O)n1 + Cc1cnc(CNC(=O)c2c(=O)c3ccc(N4CCCN(C)CC4)nc3n3c2sc2ccccc23)cn1 ? 22.5

Also check Cc1cccc(N(C)C(=O)C2C(O)CCN2c2nc(C)cc(C(F)(F)F)c2C#N)c1 (stereo not given) + Cc1cnc(CNC(=O)c2c(=O)c3ccc(N4CCCN(C)CC4)nc3n3c2sc2ccccc23)cn1 33.5

Now give it for CC1COCCN1c1cc(-c2ccnn2C)c2ccnc(-c3ccn[nH]3)c2n1 (stereo not given) + Cc1cnc(CNC(=O)c2c(=O)c3ccc(N4CCCN(C)CC4)nc3n3c2sc2ccccc23)cn1 too. 20.8

Again, but for CC1COCCN1c1cc(C2(S(C)(=N)=O)CC2)nc(-c2ccnc3[nH]ccc23)n1 (stereo not given) + CN(C)c1ccc(Nc2c3ccc(NC(=O)CCN4CCCC4)cc3nc3cc(NC(=O)CCN4CCCC4)ccc23)cc1 66.9
